- target-or-system: mTOR (Homo sapiens)
- Sequence (P42345 1360-2549): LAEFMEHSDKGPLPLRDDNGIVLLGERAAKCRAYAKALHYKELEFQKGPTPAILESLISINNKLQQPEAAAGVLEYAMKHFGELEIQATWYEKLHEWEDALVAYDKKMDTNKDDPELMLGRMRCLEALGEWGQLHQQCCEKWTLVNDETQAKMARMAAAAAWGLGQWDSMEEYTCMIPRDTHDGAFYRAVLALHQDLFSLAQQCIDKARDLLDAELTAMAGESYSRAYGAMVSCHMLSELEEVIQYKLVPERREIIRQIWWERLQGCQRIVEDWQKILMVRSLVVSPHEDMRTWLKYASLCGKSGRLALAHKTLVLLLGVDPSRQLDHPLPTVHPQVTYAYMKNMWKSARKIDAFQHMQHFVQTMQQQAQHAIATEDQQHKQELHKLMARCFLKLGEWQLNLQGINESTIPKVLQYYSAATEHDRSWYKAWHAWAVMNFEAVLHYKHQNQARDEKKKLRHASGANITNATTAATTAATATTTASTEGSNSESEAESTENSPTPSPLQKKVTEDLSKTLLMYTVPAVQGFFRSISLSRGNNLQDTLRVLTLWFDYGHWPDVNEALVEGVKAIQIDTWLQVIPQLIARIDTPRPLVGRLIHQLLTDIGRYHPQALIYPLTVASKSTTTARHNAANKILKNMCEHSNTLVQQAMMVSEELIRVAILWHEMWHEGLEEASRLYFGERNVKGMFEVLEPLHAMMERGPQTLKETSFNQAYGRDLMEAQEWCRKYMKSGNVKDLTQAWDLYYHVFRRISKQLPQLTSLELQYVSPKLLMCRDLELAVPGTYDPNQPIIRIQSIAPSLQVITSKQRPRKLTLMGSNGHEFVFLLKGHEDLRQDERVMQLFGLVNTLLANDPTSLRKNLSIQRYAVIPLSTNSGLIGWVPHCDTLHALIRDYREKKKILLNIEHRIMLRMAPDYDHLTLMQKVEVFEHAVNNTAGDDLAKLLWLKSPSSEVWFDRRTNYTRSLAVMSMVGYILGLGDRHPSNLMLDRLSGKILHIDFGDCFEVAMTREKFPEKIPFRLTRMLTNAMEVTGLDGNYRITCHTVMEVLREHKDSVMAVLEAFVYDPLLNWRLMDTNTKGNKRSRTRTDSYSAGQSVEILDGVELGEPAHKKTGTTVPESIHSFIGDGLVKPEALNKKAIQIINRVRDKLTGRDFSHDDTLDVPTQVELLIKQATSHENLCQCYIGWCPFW
- method-summary: mTOR kinase activity, LANCE Ultra TR-FRET
- condition-parameters: truncated mTOR protein, triplicate; read-out: Kinases IC50 mTOR
Counter-ions that a name gives are not always drawn.
Catalogue of IC50 readings, one per entry.
The answer is to be given in nM; state only the numeric part.

Study these solved cases before continuing.
molecule=C=Cc1cnc2c(N3CCOCC3)nc(-c3ccc(O)cc3)nc2c1 experimental_value=370
molecule=O=CCCc1cnc2c(N3CCOCC3)nc(-c3cccc(O)c3)nc2c1 experimental_value=1900
molecule="OCC(O)c1cnc2c(N3CCOCC3)nc(-c3cccc(O)c3)nc2c1 (stereo not drawn)" experimental_value=460

[ask] Any idea what its IC50 is? The molecule is "C=Cc1cnc2c(N3CCOCC3)nc(-c3cccc(O)c3)nc2c1"
[reply] 109

[ask] Entry "Oc1cccc(-c2nc(N3CCOCC3)c3ncc(CNC4CC4)cc3n2)c1" please
[reply] 249

[ask] Entry CN1CCN(Cc2cnc3c(N4CCOCC4)nc(-c4cccc(O)c4)nc3c2)CC1 [Compound 30, hydrochloride] please
[reply] 2200

[ask] Entry "N#CCc1cnc2c(N3CCOCC3)nc(-c3cccc(O)c3)nc2c1" please
[reply] 820

[ask] Entry Oc1cccc(-c2nc(N3CCOCC3)c3ncc(CN4CCOCC4)cc3n2)c1 [Compound 29, hydrochloride] please
[reply] 286

[ask] Entry "Oc1ccc(-c2nc(N3CCOCC3)c3ncc(Cl)cc3n2)cc1" please
[reply] 184

----------
Catalogue of IC50 readings, one per entry.
- Tested on: HCT116
- method-summary: Toxicity test on cells, HCT116
- Format: cell-based
- condition-parameters: Homo sapiens, HCT-116; 48 hours of treatment, Hoechst nuclei staining
- Procedure: The compounds according to the invention were also tested on the cell lines HuH7, CaCo-2, HCT116, PC3, NCl, HacaT and Fibroblasts. Operating Procedure: The cells were cultivated according to the ECACC recommendations. The toxicity test of the compounds on these cells was conducted as follows: 4×10^3 cells/well were sown in 96 wells. […] The acquisition of images and the analysis was carried out by means of a reader Cellomics ArrayScan VTI/HCS (Thermo Scientific).
Structures can show the parent of a compound that is named as a salt.
The answer is to be given in µM; state only the numeric part.

Study these solved cases before continuing.
compound="C=Cc1cnc2c(N3CCOCC3)nc(-c3cccc(O)c3)nc2c1 [Compound 14]" readout_label=IC50 value_unit=µM experimental_value=5
compound="O=Cc1cnc2c(N3CCOCC3)nc(-c3cccc(O)c3)nc2c1 [Compound 20]" readout_label=IC50 value_unit=µM experimental_value=6
compound="Oc1cccc(-c2nc(N3CCOCC3)c3ncc(CNC4CC4)cc3n2)c1 [Compound 27]" readout_label=IC50 value_unit=µM experimental_value=5
compound="OCc1cnc2c(N3CCOCC3)nc(-c3cccc(O)c3)nc2c1 [Compound 34]" readout_label=IC50 value_unit=µM experimental_value=3
compound="O=C(Nc1ccc(CO)cc1)Nc1ccc(-c2nc(N3CCOCC3)c3ncc(CN4CCOCC4)cc3n2)cc1 [Compound 78]" readout_label=IC50 value_unit=µM experimental_value=1

[ask] Any idea what its IC50 is? The compound is Oc1cccc(-c2nc(N3CCOCC3)c3ncc(CN4CCN(C5CCCCC5)CC4)cc3n2)c1 [Compound 56]
[reply] 7

[ask] Entry Oc1cccc(-c2nc(N3CCOCC3)c3ncc(CN4CCOCC4)cc3n2)c1 [Compound 29, hydrochloride] please
[reply] 5
